Measured target: T1, Ig-1 and Ig-2 domains fragment of human Tyro3 ECD, His-Strep tagged (human)
T1 construct: also called Ig1-Ig2 fragment
T1 chain: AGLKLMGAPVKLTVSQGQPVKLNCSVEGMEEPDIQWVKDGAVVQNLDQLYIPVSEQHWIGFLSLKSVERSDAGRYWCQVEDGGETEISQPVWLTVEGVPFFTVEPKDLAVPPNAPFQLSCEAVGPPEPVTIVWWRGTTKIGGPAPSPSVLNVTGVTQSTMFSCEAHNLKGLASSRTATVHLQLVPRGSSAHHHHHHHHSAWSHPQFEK
Protocol description: sandwich ELISA, Strep-tagged fragment captured on StrepMAB plate, scFv 10 µg/mL (Table 17), anti-FLAG-HRP
Quantity measured: binding result

Guide cases for binding result, answers given:
1) anti-Tyro3 scFv 2411 (scFv, V domains shown, Tested as a single-chain Fv made in E. coli) VH: EVQLVQSGADVKKPGASLTISCQASGYTFTDYWISWVRQKPGKGLEWMGSITRSSSRTHYGPSFQGHVTISADRSTATAYLQWRSLEASDTAMYYCVRGYTHLRTWGPGTLVTVSS VL: SYELTQPPSVSVSPGQTARITCSGDALPKKYAYWYQQKSGQAPVLVIYEDSKRSSGIPERFSGSSSGTMATLTISGAQVEDEADYYCYSANQRGNYMVFGGGTKLTVL ... binds
2) anti-Tyro3 scFv 2709 (scFv, V domains shown, Tested as a single-chain Fv made in E. coli) VH: EVQLVQSGADVKKPGASLTISCQASGYTFTDYWISWVRQKPGKGLEWMGAISRNGSTTYYGPSFQGHVTISADRSTATAYLQWRSLEASDTAMYYCVRSGGLTSGGTIPEYYQHWGPGTLVPVSS VL: SYELTQPPSVSVSPGQTARITCSGDALPKKYAYWYQQKSGQAPVLVIYEDKKRVSGIPERFSGSSSGTMATLTISGAQVEDEADYYCYSLAVDGNYGVFGGGTKLTVL ... binds
3) anti-Tyro3 scFv 2415 (scFv, V domains shown, Tested as a single-chain Fv made in E. coli) VH: EVQLVQSGADVKKPGASLTISCQASGYTFTDYWISWVRQKPGKGLEWMGQIRGPASATHYGPSFQGHVTISADRSTATAYLQWRSLEASDTAMYYCVRHQQQTSGGTIPEYYQHWGPGTLVTVSS VL: SYELTQPPSVSVSPGQTARITCSGDALPKKYAYWYQQKSGQAPVLVIYEDKKRISGIPERFSGSSSGTMATLTISGAQVEDEADYYCYSTSTGGNYMVFGGGTKLTVL ... binds
4) anti-Tyro3 scFv 2713 (scFv, V domains shown, Tested as a single-chain Fv made in E. coli) VH: EVQLVQSGADVKKPGASLTISCQASGYTFTDYWISWVRQKPGKGLEWMGRISRHGSQTYYGPSFQGHVTISADRSTATAYLQWRSLEASDTAMYYCVRAGGQTSGGTIPEYYQHWGPGTLVTVSS VL: SYELTQPPSVSVSPGQTARITCSGDALPKKYAYWYQQKSGQAPVLVIYEDHKRASGIPERFSGSSSGTMATLTISGAQVEDEADYYCYSISPAGNYGVFGGGTKLTVL ... binds

Attention now turns to another entry.
Value of binding result reported for the binder anti-Tyro3 scFv 2412 (scFv, V domains shown, Tested as a single-chain Fv made in E. coli) VH: EVQLVQSGADVKKPGASLTISCQASGYTFTDYWISWVRQKPGKGLEWMGRIRPLLSHTMYGPSFQGHVTISADRSTATAYLQWRSLEASDTAMYYCVRSWLATSGGTIPEYYQHWGPGTLVTVSS VL: SYELTQPPSVSVSPGQTARITCSGDALPKKYAYWYQQKSGQAPVLVIYEDAKRVSGIPERFSGSSSGTMATLTISGAQVEDEADYYCYSASANGNYRVFGGGTKLTVL is binds
